Catalogue of MCHC values
# Organism: Rattus norvegicus
# assay.remarks: Open TG-GATES - Regimen: Single
# Type: toxicity, organism-based, Sprague-Dawley
# Design: regimen Single, gender Male, age 6 weeks
# protocol.conditions: in vivo, po, 0 mg/kg, 24 h, tissue Blood, route gavage, dose level Control
Give just the number in %; leave the unit off.

Worked examples follow.
1. CCc1cc(C(N)=S)ccn1 [ETHIONAMIDE] = 33.7
2. CSc1ccc2c(c1)N(CCC1CCCCN1C)c1ccccc1S2 (centres undefined) = 33.9
3. CN(C)CCC=C1c2ccccc2CCc2ccccc21 = 32.4

Notebook: NC(=O)N/N=C/c1ccc([N+](=O)[O-])o1 , MCHC read as 32.4

----------
# Species on record: Rattus norvegicus
# assay.remarks: Open TG-GATES - Regimen: Daily Repeat
# Type: toxicity, organism-based, Sprague-Dawley
# Design: regimen Daily Repeat, gender Male, age 6 weeks
# protocol.conditions: in vivo, po, 0 mg/kg, […], tissue Blood, route gavage, dose level Control, time 7 day
Catalogue of Neu values
Give just the number in %; leave the unit off.

Worked examples follow.
1. CN(C)CCC=C1c2ccccc2CCc2ccccc21 = 16.4
2. CO[C@H]1/C=C/O[C@@]2(C)Oc3c(C)c(O)c4c(O)c(c(/C=N/N5CCN(C)CC5)c(O)c4c3C2=O)NC(=O)/C(C)=C\C=C\[C@H](C)[C@H](O)[C@@H](C)[C@@H](O)[C@@H](C)[C@H](OC(C)=O)[C@@H]1C = 13.6

Lab note: next compound to report on.
Notebook: NC(=O)N1c2ccccc2C=Cc2ccccc21 [CARBAMAZEPINE] , Neu read as 14.4

----------
# Organism: Rattus norvegicus
# assay.remarks: Open TG-GATES - Regimen: Daily Repeat
# Assay type: toxicity, organism-based, Sprague-Dawley
# Parameters: regimen Daily Repeat, gender Male, age 6 weeks
# protocol.conditions: in vivo, po, 0 mg/kg, […], tissue Plasma, route gavage, dose level Control, time 14 day
assay.readout: TBIL

Worked examples follow.
1) CC(=O)Oc1ccccc1C(=O)O = 0.1 mg/dL
2) Cn1c(=O)c2[nH]cnc2n(C)c1=O.O = 0.004 mg/dL
3) NC(=O)N1c2ccccc2C=Cc2ccccc21 [CARBAMAZEPINE] = 0.2 mg/dL
4) CO[C@H]1/C=C/O[C@@]2(C)Oc3c(C)c(O)c4c(O)c(c(/C=N/N5CCN(C)CC5)c(O)c4c3C2=O)NC(=O)/C(C)=C\C=C\[C@H](C)[C@H](O)[C@@H](C)[C@@H](O)[C@@H](C)[C@H](OC(C)=O)[C@@H]1C = 0.3 mg/dL
5) COc1ccc2c(c1)c(CC(=O)O)c(C)n2C(=O)c1ccc(Cl)cc1 = 0.3 mg/dL

Notebook: COc1ccc(Cc2nccc3cc(OC)c(OC)cc23)cc1OC , TBIL read as 0.016 mg/dL

Notebook: CCCC(CCC)C(=O)O , TBIL read as 0.1 mg/dL

Notebook: NC(=O)N/N=C/c1ccc([N+](=O)[O-])o1 , TBIL read as 0.046 mg/dL

Notebook: CSc1ccc2c(c1)N(CCC1CCCCN1C)c1ccccc1S2 (stereo not drawn) , TBIL read as 0.3 mg/dL

Notebook: O=C(O)c1cc(/N=N/c2ccc(S(=O)(=O)Nc3ccccn3)cc2)ccc1O , TBIL read as 0.2 mg/dL

Notebook: Clc1ccccc1CN1CCc2sccc2C1 , TBIL read as 0.098 mg/dL

Notebook: O=C(O)c1cn(C2CC2)c2cc(N3CCNCC3)c(F)cc2c1=O , TBIL read as 0.2 mg/dL

Notebook: CN(C)CCC=C1c2ccccc2CCc2ccccc21 , TBIL read as 0.046 mg/dL

----------
# Species: Rattus norvegicus
# assay.remarks: Open TG-GATES - Regimen: Daily Repeat
# Assay type: toxicity, organism-based, Sprague-Dawley
# Set-up: regimen Daily Repeat, gender Male, age 6 weeks
# protocol.conditions: in vivo, po, 0 mg/kg, […], tissue Plasma, route gavage, dose level Control, time 14 day
Satisfied if ALP is below 800 IU/L. Not satisfied if not; exact matches included in Not satisfied.

1) Clc1ccccc1CN1CCc2sccc2C1 [TICLOPIDINE] = Not satisfied
2) C[C@H](CS)C(=O)N1CCC[C@H]1C(=O)O [CAPTOPRIL] = Not satisfied
3) COc1ccc(Cc2nccc3cc(OC)c(OC)cc23)cc1OC [PAPAVERINE] = Not satisfied
4) NC(=O)N/N=C/c1ccc([N+](=O)[O-])o1 [NITROFURAZONE] = Not satisfied
5) O=C(O)c1cc(/N=N/c2ccc(S(=O)(=O)Nc3ccccn3)cc2)ccc1O [SULFASALAZINE] = Not satisfied
6) CCCC(CCC)C(=O)O [VALPROIC ACID] = Not satisfied
7) CCc1cc(C(N)=S)ccn1 [ETHIONAMIDE] = Satisfied
8) Cn1c(=O)c2[nH]cnc2n(C)c1=O.O [THEOPHYLLINE] = Not satisfied

Given CN(C)CCC=C1c2ccccc2CCc2ccccc21 [AMITRIPTYLINE] , is recorded ALP strictly lower than 800 IU/L?
Not satisfied

Given CSc1ccc2c(c1)N(CCC1CCCCN1C)c1ccccc1S2 (centres undefined) [THIORIDAZINE] , is recorded ALP strictly lower than 800 IU/L?
Not satisfied

Given CC(=O)Oc1ccccc1C(=O)O [ASPIRIN] , is recorded ALP strictly lower than 800 IU/L?
Satisfied

Given O=C(O)c1cn(C2CC2)c2cc(N3CCNCC3)c(F)cc2c1=O [CIPROFLOXACIN] , is recorded ALP strictly lower than 800 IU/L?
Not satisfied

----------
Catalogue of MCHC values
# Organism: Rattus norvegicus
# assay.remarks: Open TG-GATES - Regimen: Daily Repeat
# Format: toxicity, organism-based, Sprague-Dawley
# Set-up: regimen Daily Repeat, gender Male, age 6 weeks
# protocol.conditions: in vivo, po, 0 mg/kg, 72 h, tissue Blood, route gavage, dose level Control, time 3 day
Give just the number in %; leave the unit off.

Worked examples follow.
1. CO[C@H]1/C=C/O[C@@]2(C)Oc3c(C)c(O)c4c(O)c(c(/C=N/N5CCN(C)CC5)c(O)c4c3C2=O)NC(=O)/C(C)=C\C=C\[C@H](C)[C@H](O)[C@@H](C)[C@@H](O)[C@@H](C)[C@H](OC(C)=O)[C@@H]1C = 33.1
2. NC(=O)N/N=C/c1ccc([N+](=O)[O-])o1 = 32.6

Notebook: CSc1ccc2c(c1)N(CCC1CCCCN1C)c1ccccc1S2 (stereo not drawn) , MCHC read as 33.7

----------
Catalogue of ALT values
# Organism: Rattus norvegicus
# assay.remarks: Open TG-GATES - Regimen: Single
# Type: toxicity, organism-based, Sprague-Dawley
# Parameters: regimen Single, gender Male, age 6 weeks
# protocol.conditions: in vivo, po, 0 mg/kg, 3 h, tissue Plasma, route gavage, dose level Control
Give just the number in IU/L; leave the unit off.

Notebook: CCc1cc(C(N)=S)ccn1 [ETHIONAMIDE] , ALT read as 31.8

Notebook: NC(=O)N1c2ccccc2C=Cc2ccccc21 [CARBAMAZEPINE] , ALT read as 33

----------
Catalogue of Lym values
# Species on record: Rattus norvegicus
# assay.remarks: Open TG-GATES - Regimen: Single
# Type: toxicity, organism-based, Sprague-Dawley
# Set-up: regimen Single, gender Male, age 6 weeks
# protocol.conditions: in vivo, po, 0 mg/kg, 3 h, tissue Blood, route gavage, dose level Control
Give just the number in %; leave the unit off.

Worked examples follow.
1) O=C(O)c1cc(/N=N/c2ccc(S(=O)(=O)Nc3ccccn3)cc2)ccc1O [SULFASALAZINE] = 80.4
2) C[C@H](CS)C(=O)N1CCC[C@H]1C(=O)O [CAPTOPRIL] = 79.2

Lab note: next compound to report on.
Notebook: CCc1cc(C(N)=S)ccn1 [ETHIONAMIDE] , Lym read as 80.2

----------
# Organism: Rattus norvegicus
# assay.remarks: Open TG-GATES - Regimen: Daily Repeat
# Assay type: toxicity, organism-based, Sprague-Dawley
# Design: regimen Daily Repeat, gender Male, age 6 weeks
# protocol.conditions: in vivo, po, 0 mg/kg, […], tissue Plasma, route gavage, dose level Control, time 14 day
Catalogue of IP values
Give just the number in mg/dL; leave the unit off.

Notebook: CCc1cc(C(N)=S)ccn1 [ETHIONAMIDE] , IP read as 6.8

----------
# Species: Rattus norvegicus
# assay.remarks: Open TG-GATES - Regimen: Daily Repeat
# Type: toxicity, organism-based, Sprague-Dawley
# Design: regimen Daily Repeat, gender Male, age 6 weeks
# protocol.conditions: in vivo, po, 0 mg/kg, […], tissue Blood, route gavage, dose level Control, time 14 day
Classify by measured Mono: Fulfilled if it is equal to or exceeds 3%, Not fulfilled if it is smaller.

1) CSc1ccc2c(c1)N(CCC1CCCCN1C)c1ccccc1S2 (stereo unspecified) [THIORIDAZINE] = Fulfilled

Could you verify whether the entry COc1ccc2c(c1)c(CC(=O)O)c(C)n2C(=O)c1ccc(Cl)cc1 [INDOMETHACIN] shows Mono of no less than 3%?
Fulfilled

Could you verify whether the entry CC(=O)Oc1ccccc1C(=O)O [ASPIRIN] shows Mono of no less than 3%?
Not fulfilled

Could you verify whether the entry NC(=O)N1c2ccccc2C=Cc2ccccc21 [CARBAMAZEPINE] shows Mono of no less than 3%?
Not fulfilled

Could you verify whether the entry COc1ccc(Cc2nccc3cc(OC)c(OC)cc23)cc1OC [PAPAVERINE] shows Mono of no less than 3%?
Not fulfilled
